# experimental.system: T1, RTEL1∆762R1264H (human, UniProt Q9NZ71-6 762-1300, R1264H)
# T1 sequence: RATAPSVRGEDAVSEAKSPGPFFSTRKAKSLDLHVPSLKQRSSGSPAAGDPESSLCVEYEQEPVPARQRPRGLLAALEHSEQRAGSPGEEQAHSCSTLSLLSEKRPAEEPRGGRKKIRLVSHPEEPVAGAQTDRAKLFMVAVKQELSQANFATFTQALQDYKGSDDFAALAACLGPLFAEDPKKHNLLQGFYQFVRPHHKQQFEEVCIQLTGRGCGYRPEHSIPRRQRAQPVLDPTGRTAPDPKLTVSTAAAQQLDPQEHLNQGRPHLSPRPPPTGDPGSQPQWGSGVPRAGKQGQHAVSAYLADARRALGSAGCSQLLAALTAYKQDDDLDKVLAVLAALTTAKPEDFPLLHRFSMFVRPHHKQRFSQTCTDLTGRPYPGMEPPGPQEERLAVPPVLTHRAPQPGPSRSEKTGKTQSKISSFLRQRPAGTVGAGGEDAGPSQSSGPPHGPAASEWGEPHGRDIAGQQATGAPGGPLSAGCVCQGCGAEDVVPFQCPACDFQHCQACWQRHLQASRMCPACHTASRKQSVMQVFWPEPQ
# test.protocol: competition (fluorescence anisotropy); vs FAM-TERRA-MUT, 200 nM; 20 mM Tris pH 7.5, 50 mM KCl, 0.5 mM TCEP, 0.5 mM MgCl2, 10% glycerol, 0.1% IGEPAL, room temperature 30 min; oligos refolded in 10 mM Tris pH 7.5, 100 mM KCl; EMSA legends give 150 or 300 mM KCl
# run.parameters: protein: recombinant; tags: 6xHis; G4
property.label: Ki (nM)

| binder | result.unit | experimental.result |
| --- | --- | --- |
| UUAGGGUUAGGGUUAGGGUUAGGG (structured_RNA) [TERRA competitor] | nM | 30 |
| GGTTAGGGTTAGGGTTAGGGTTAGGGTTAG (structured_DNA) [hTelo] | nM | 47 |
